Measured Ki values are reported for all entries that follow.
# methodDescription: Displacement of [3H]phorbol-12,13-dibutyrate from mouse brain protein kinase C
Field: value (include unit after the number)

Solved entries (count: 3):
molecularString	Ki
CCCCCCCCCCCCCC(=O)O[C@@H]1CCC(=O)O[C@H]1CO	2.8 µM
CCCCCCCCCCCCCC(=O)O[C@@H]1CC(=O)O[C@H]1CO	2.5 µM
CCCCCCCCCCCCCC(=O)O[C@H]1CCC(=O)O[C@@H]1CO	30.5 µM

Shift focus to the following entry.
## Input Would you mind telling me what Ki value was observed for CCCCCCCCCCCCCC(=O)O[C@H]1CC(=O)O[C@@H]1CO ?
## Output 5.3 µM
